System: E. coli BW25113 ΔtolC growth inhibition, OD615
procedureText: growth inhibitors of E. coli tolC mutant, dose response, strain BW25113 ΔtolC::kan (AID 617);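 also: growth read after 20 h at 37 °C with compound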
pIC50: −log10 of the molar value.
Record Condition met whenever pIC50 is at 5 or higher; record Condition not met when lower.

Solved entries:
O=C(c1ccco1)N1CCN(c2ncnc3c2[nH]c2ccc(Br)cc23)CC1 | Condition not met
CCOC(=O)C1CCN(c2nc3cc(OC)ccc3cc2C#N)CC1 | Condition not met
CCOc1ccccc1-c1nn2c(Cc3ccccc3)nnc2s1 | Condition met

Now for a further compound.
Ask: Exam item: decide whether the reported pIC50 for O=C(Nc1nnc(-c2ccccc2Cl)o1)c1ccc(S(=O)(=O)N2CCCCCC2)cc1 is at least 5.
Reply: Condition met

Numbers sourced from PubChem BioAssay AID617.
